- system-name: UniProt P08684
- Sequence (P08684 whole entry): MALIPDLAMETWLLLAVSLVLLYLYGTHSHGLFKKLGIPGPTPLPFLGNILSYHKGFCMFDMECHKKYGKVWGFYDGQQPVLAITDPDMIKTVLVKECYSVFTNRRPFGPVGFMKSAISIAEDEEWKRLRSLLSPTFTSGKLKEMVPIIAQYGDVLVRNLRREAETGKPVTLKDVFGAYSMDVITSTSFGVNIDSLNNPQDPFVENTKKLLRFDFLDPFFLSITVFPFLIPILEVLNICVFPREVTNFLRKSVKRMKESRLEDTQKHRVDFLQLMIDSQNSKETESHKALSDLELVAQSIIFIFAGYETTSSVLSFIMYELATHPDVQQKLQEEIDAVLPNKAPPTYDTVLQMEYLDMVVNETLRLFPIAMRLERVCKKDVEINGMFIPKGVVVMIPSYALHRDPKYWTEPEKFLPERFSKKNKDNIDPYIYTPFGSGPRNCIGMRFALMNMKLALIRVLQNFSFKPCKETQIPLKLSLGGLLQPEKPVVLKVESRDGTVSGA
- method: Determination of compound Kiapp against recombinant CYP3A4 enzyme (BFC fluorescent substrate)
- Type: biochemical
- reported-conditions: Baculo. enzyme preparation, read-out: Kiapp (BFC, Baculo.)
Consider the following compounds and their measured Ki readings.

{"columns": ["compound", "bound-type", "Ki (nM)"],
 "data": [
  ["COc1cncc(NS(=O)(=O)c2ccccc2C(=O)NCc2cc(F)cc(F)c2)c1", "=", 54.5],
  ["COc1cncc(NS(=O)(=O)c2ccccc2C(=O)N2CCOC(c3c(F)cccc3F)C2)c1 (centres unmarked)", "=", 379],
  ["O=C(c1ccccc1S(=O)(=O)Nc1cccnc1)N1CCOCC1", ">", 1000],
  ["COc1cncc(NS(=O)(=O)c2ccccc2C(=O)NCCC(C)C)c1", "=", 120],
  ["Cc1ccncc1NS(=O)(=O)c1ccccc1C(=O)NCc1ccc(S(C)(=O)=O)cc1", ">", 1000],
  ["COc1cncc(NS(=O)(=O)c2ccccc2C(=O)NCCc2ccncc2)c1", "=", 912],
  ["COc1cncc(NS(=O)(=O)c2ccccc2C(=O)NCc2ccc(Cl)cc2F)c1", "=", 52.2],
  ["COc1cncc(NS(=O)(=O)c2ccccc2C(=O)NCc2cccc(Cl)c2)c1", "=", 23.7]
]}
